System: Sam68 (KHDRBS1)
Test Summary: compounds binding KHDRBS1 protein – biochemical, small-molecule microarray, 635 nm fluorescence, primary screen (AID 1125);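 also: score merges 667 nm channel intensity with signal to noise over triplicate slides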
Details: higher = more signal
Endpoint Name: composite z-score
No unit in the answer, only the number.

| Molecule | composite z-score |
| --- | --- |
| C[C@@H]1OC=C2[C@@H](O)[C@H]3O[C@H]3C(=O)[C@]23[C@H]1[C@H]1C2=C([C@@H](O)[C@H]4O[C@H]4C2=O)[C@@H]3O[C@@H]1C | -1.86 |
| CCCc1cc2c(n1CCO)C(C)C1CN(C(=O)c3ccccc3)C(C)(C(=O)OC)C21 (configuration not stated) | 0.563 |
| COC(=O)[C@@]1(Cc2ccccc2)[C@H]2c3cc(C(=O)N(C)C)[nH]c3C[C@H]2CN1C(=O)c1ccccc1 | -1.41 |
| COC(=O)[C@@]1(Cc2ccccc2)[C@H]2c3cc(C(=O)N(C)C)n(C)c3C[C@H]2CN1C(=O)c1ccccc1 | -0.299 |
| OCc1ccc(C2=CC(c3cccs3)N(Cc3cccc(OC(F)(F)F)c3)CC2)cc1 (configuration not stated) | 0.277 |
| CCCc1cc2c(n1Cc1ccc(C)cc1)C(C)C1CN(C(=O)c3ccccc3)C(C)(C(=O)OC)C21 (configuration not stated) | 0.52 |

Consider `COc1cc2c(cc1O)C=[N+](C)CC2` . Its measured composite z-score is -1.67

Consider `c1ccc(-c2cc3c(nc2-c2ccccc2)CCNC3)cc1` . Its measured composite z-score is -0.653

Consider O=P(c1ccccc1)(c1ccccc1)N1CC2(CC2)CC(O)(c2ccccc2)C1 (configuration not stated) . Its measured composite z-score is 0.584

----------
Tgt: Carbonic anhydrase 2 (Homo sapiens)
Test Summary: compounds binding carbonic anhydrase 2 – biochemical, small-molecule microarray, Alexa647-labelled CAII, profiling panel (AID 1122)
Details: CAII-A647 binding fluorescence, higher = more signal
# if value of composite z-score reaches 0.3, tag Y; if it stays below, tag N

Reference set (8 entries):
| Compound | Group |
| --- | --- |
| CN1CCc2nc(CO)c(CO)cc2C1 | N |
| COC(=O)[C@@]1(Cc2ccccc2)[C@H]2c3cc(C(=O)N(C)C)[nH]c3C[C@H]2CN1C(=O)c1ccccc1 | Y |
| CCOC(=O)[C@H]1CC=C2C(=O)Oc3ccccc3[C@@H]21 | Y |
| COC(=O)NCC=Cc1nc(CCC=CC(=O)O[C@H]2CC3CC(=O)O[C@@H](C=CCC(C)C)C[C@@H]4CC[C@H](C)[C@@H](C[C@@H](OC)C[C@H](C2)O3)O4)co1 | N |
| OCc1ccc(C2=CC(c3cccs3)N(Cc3cccc(OC(F)(F)F)c3)CC2)cc1 (centres undefined) | N |
| CCCc1cc2c(n1Cc1ccco1)C(C)C1CN(C(=O)c3ccccc3)C(C)(C(=O)OC)C21 (centres undefined) | Y |
| CCCc1cc2c(n1Cc1ccc(C)cc1)C(C)C1CN(C(=O)c3ccccc3)C(C)(C(=O)OC)C21 (centres undefined) | Y |
| O=P(c1ccccc1)(c1ccccc1)N1CC2(CC2)CC(O)(c2ccccc2)C1 (centres undefined) | Y |

Now consider a different compound.
Has COC(=O)C1(C)C=C2C(=C(C)C(=O)C2C)CN1 (centres undefined) a recorded composite z-score greater than or equal to 0.3?
Y

----------
Test Summary: blockers of DNA damage checkpoint Chk1 activation – imaging, HeLa, hydroxyurea, phospho-Chk1 nuclear intensity, primary screen (AID 1187); also: test concentration not given here
Details: hydroxyurea-induced phospho-Chk1 immunofluorescence imaging, higher = more signal
Each record here notes measured z-score.
No unit in the answer, only the number.

| Molecule | Measured Result |
| --- | --- |
| C=C(CC1(C(C)NP(=O)(c2ccccc2)c2ccccc2)CC1)c1ccccc1 (centres undefined) | 0.321 |
| COc1cc2c(cc1O)C=[N+](C)CC2 | -0.875 |
| CCCC[C@@H]1C[C@H]1[C@@H](NP(=O)(c1ccccc1)c1ccccc1)c1ccc(Cl)cc1 | 0.316 |
| CCCc1cc2c(n1Cc1cccc(Cl)c1)C(C)C1CN(C(=O)c3ccccc3)C(C)(C(=O)OC)C21 (centres undefined) | 0.861 |
| CCCc1cc2c(n1CCO)C(C)C1CN(C(=O)c3ccccc3)C(C)(C(=O)OC)C21 (centres undefined) | 1.1 |
| COC(=O)C1(C)C=C2C(=C(C)C(=O)C2C)CN1 (centres undefined) | 0.354 |
| C=C(CC1(CNP(=O)(c2ccccc2)c2ccccc2)CC1)c1ccccc1 | -0.427 |
| CCOC(=O)[C@H]1CC=C2C(=O)Oc3ccccc3[C@@H]21 | 0.0685 |
| O=P(c1ccccc1)(c1ccccc1)N1CC2(CC2)CC(O)(c2ccccc2)C1 (centres undefined) | 0.613 |
| CN1CCC(c2ccc(CO)cc2)=CC1C1CC1 (centres undefined) | 0.657 |

Consider CCCc1cc2c(n1Cc1ccc(C)cc1)C(C)C1CN(C(=O)c3ccccc3)C(C)(C(=O)OC)C21 (centres undefined) . Its measured z-score is 0.0089

Consider `CCCC=C(CCC)[C@@H](NP(=O)(c1ccccc1)c1ccccc1)c1ccccc1` . Its measured z-score is 0.404

Consider `COC(=O)[C@@]1(Cc2ccccc2)[C@H]2c3cc(C(=O)N(C)C)n(C)c3C[C@H]2CN1C(=O)c1ccccc1` . Its measured z-score is -0.428

Consider OCc1ccc(C2=CC(C3CC3)N(Cc3sc4ccccc4c3Cl)CC2)cc1 (centres undefined) . Its measured z-score is -0.744

----------
Test Summary: budding yeast growth modifiers under rapamycin – strain BY4716, OD600, 96 h, primary screen (AID 1091); also: test concentration not given here
Details: S. cerevisiae BY4716 + rapamycin; higher = more signal, called active from +8 up or from −8 down unless noted
Calls of active or inactive are those of the source.
Each record here notes measured z-score.

The examples below pair each entry with its known result.
| Compound | Endpoint Name | Measured Result |
| --- | --- | --- |
| C=C(CC1(C(C)NP(=O)(c2ccccc2)c2ccccc2)CC1)c1ccccc1 (centres undefined) | z-score | -3 (inactive) |
| COC(=O)[C@@]1(Cc2ccccc2)[C@H]2c3cc(C(=O)N(C)C)[nH]c3C[C@H]2CN1C(=O)c1ccccc1 | z-score | 0.98 (inactive) |
| COc1cc2c(cc1O)C=[N+](C)CC2 | z-score | -1.25 (inactive) |
| CCCC=C(CCC)[C@@H](NP(=O)(c1ccccc1)c1ccccc1)c1ccccc1 | z-score | 0.0781 (inactive) |

Consider `CCOC(=O)[C@H]1CC=C2C(=O)Oc3ccc(Br)cc3[C@@H]21` . Its measured z-score is -1.8 (inactive)

Consider `COC(=O)[C@H]1C(=O)c2ccccc2O[C@@](C(=O)OC)(c2ccccc2)[C@@H]1c1ccccc1` . Its measured z-score is 0.225 (inactive)

Consider `C[C@H]1O[C@H]2C3=C(C(=O)[C@@H]4O[C@@H]4[C@@H]3O)[C@@H]1[C@@H]1[C@@H](C)OC=C3[C@@H](O)[C@H]4O[C@H]4C(=O)[C@]312` . Its measured z-score is -0.584 (inactive)

Consider `C[C@@H]1Cc2c(cnc3c2CN(C)CC3)CO1` . Its measured z-score is -0.582 (inactive)

Consider `COC(=O)NCC=Cc1nc(CCC=CC(=O)O[C@H]2CC3CC(=O)O[C@@H](C=CCC(C)C)C[C@@H]4CC[C@H](C)[C@@H](C[C@@H](OC)C[C@H](C2)O3)O4)co1` . Its measured z-score is -0.209 (inactive)

----------
Test Summary: probe aInhba binding on compound microarray – biochemical, small-molecule microarray, 635/667 nm fluorescence, primary screen (AID 1148);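 also: score merges 667nm spot fluorescence with signal-to-noise for antibody binding to printed compounds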
Details: higher = more signal; small-molecule microarray, probe aInhba, fluorescence unless noted
Each record here notes measured composite z-score.
No unit in the answer, only the number.

The examples below pair each entry with its known result.
| Compound | composite z-score |
| --- | --- |
| COC(=O)[C@H]1C(=O)c2ccccc2O[C@@](C(=O)OC)(c2ccccc2)[C@@H]1c1ccccc1 | 0.177 |
| C[C@H]1O[C@H]2C3=C(C(=O)[C@@H]4O[C@@H]4[C@@H]3O)[C@@H]1[C@@H]1[C@@H](C)OC=C3[C@@H](O)[C@H]4O[C@H]4C(=O)[C@]312 | -0.208 |
| CN1CCC(c2ccc(CO)cc2)=CC1C1CC1 (centres undefined) | -0.101 |
| CCc1cc2c(nc1CC)CCN(CCC(C)=NOC)C2 | -0.0645 |
| CCCC[C@@H]1C[C@H]1[C@@H](NP(=O)(c1ccccc1)c1ccccc1)c1ccc(Cl)cc1 | 0.157 |
| COC(=O)[C@@]1(Cc2ccccc2)[C@H]2c3cc(C(=O)N(C)C)[nH]c3C[C@H]2CN1C(=O)c1ccccc1 | -0.147 |

Consider CCCc1cc2c(n1Cc1cccc(Cl)c1)C(C)C1CN(C(=O)c3ccccc3)C(C)(C(=O)OC)C21 (centres undefined) . Its measured composite z-score is 0.138

Consider `CCOC(=O)[C@H]1CC=C2C(=O)Oc3ccc(Br)cc3[C@@H]21` . Its measured composite z-score is -0.128

Consider `COC(=O)[C@H]1[C@H](c2ccccc2)C(=O)[C@]2(O)c3ccccc3O[C@@]12c1ccccc1` . Its measured composite z-score is -0.101

Consider `C[C@@H]1Cc2c(cnc3c2CN(C)CC3)CO1` . Its measured composite z-score is -0.0523

Consider C=C(CC1(C(C)NP(=O)(c2ccccc2)c2ccccc2)CC1)c1ccccc1 (centres undefined) . Its measured composite z-score is 0.122

Consider `CCOC(=O)[C@H]1CC=C2C(=O)Oc3ccccc3[C@@H]21` . Its measured composite z-score is -0.0405

Consider `COC(=O)[C@@]1(Cc2ccccc2)[C@H]2c3cc(C(=O)N(C)C)n(C)c3C[C@H]2CN1C(=O)c1ccccc1` . Its measured composite z-score is 0.0091

Consider `CN1CCc2nc(CO)c(CO)cc2C1` . Its measured composite z-score is 0.0442

Consider CCCc1cc2c(n1Cc1ccc(C)cc1)C(C)C1CN(C(=O)c3ccccc3)C(C)(C(=O)OC)C21 (centres undefined) . Its measured composite z-score is 0.643
